System: HEK-293T
Assay: Multiplex assay against HEK293T
Assay type: toxicity, cell-based
Settings: human, 24 h, 1 µM, compound concentration 1 uM, replicate 2
OBSERVED_PROPERTY: Population Fragmented Nuclei (%)
# value in %; strip the unit string

The following compounds have reported results that may help.
- CCNC1(C(N)=O)CCN(c2ncnc3c2nc(-c2ccccc2Cl)n3-c2ccc(Cl)cc2)CC1 [OTENABANT]: 12
- N[C@@]1(C(=O)O)CO[C@H]2[C@H](C(=O)O)[C@H]21 [LY-379268]: 7
- CN(C)CCCc1cc(C(=O)Nc2ccc(-c3ccncc3)cc2)ccc1O.Cl.Cl: 9

I would be grateful if you could share the reported Population Fragmented Nuclei (%) for c1cc(OCCCN2CCCCC2)ccc1CN1CCCCC1 [JNJ-5207852] .
11

I would be grateful if you could share the reported Population Fragmented Nuclei (%) for CCCN1CCC[C@@H]2Cc3n[nH]cc3C[C@H]21.Cl [QUINPIROLE HYDROCHLORIDE] .
8

I would be grateful if you could share the reported Population Fragmented Nuclei (%) for `O=C(NCCO)c1cccc(-c2cc(Nc3ccc(OC(F)(F)F)cc3)ncn2)c1` .
7

I would be grateful if you could share the reported Population Fragmented Nuclei (%) for CN1CCN2c3ncccc3Cc3ccccc3C2C1 (stereo unspecified) [MIRTAZAPINE] .
6

I would be grateful if you could share the reported Population Fragmented Nuclei (%) for C[C@@H]1C[C@H]2[C@@H]3CCC4=CC(=O)C=C[C@]4(C)[C@@]3(F)[C@@H](O)C[C@]2(C)[C@@]1(O)C(=O)CO [DEXAMETHASONE] .
12

I would be grateful if you could share the reported Population Fragmented Nuclei (%) for Cc1ccccc1C(=O)Nc1ccc(C(=O)N2CCCC(N(C)C)c3ccccc32)cc1.Cl (stereo unspecified) .
5

I would be grateful if you could share the reported Population Fragmented Nuclei (%) for O=C(O)Cc1ccccc1Nc1c(Cl)cccc1Cl [DICLOFENAC] .
6

I would be grateful if you could share the reported Population Fragmented Nuclei (%) for CCCC(CCC)C(=O)O [VALPROIC ACID] .
6

---

System: U2OS
Assay: Multiplex assay against U2OS
Format: toxicity, cell-based
Details: human, 12 h, 1 µM, compound concentration 1 uM, replicate 2
Each record gets a class by Population Mitochondria Different-Phenotype (%): lower level (below 2%), middle level (2% to below 6%), upper level (6% or more)

• CCNC1(C(N)=O)CCN(c2ncnc3c2nc(-c2ccccc2Cl)n3-c2ccc(Cl)cc2)CC1 = upper level
• O=C1COc2nccc(-c3ccccc3F)c2CN1Cc1cc(C(F)(F)F)cc(C(F)(F)F)c1 = upper level
• CC1(COc2ccc3c(c2)ncn3-c2ccc3cccc(N4CCC(N)CC4)c3n2)COC1 = upper level
• COc1ccc2c(c1)C(C(=O)N(Cc1ccc(N(C)C)cc1)c1ccc(C(C)C)cc1)CCC2.Cl (centres undefined) = middle level

Which class holds Cc1ccc(C(C)(O)c2nc3ccccc3s2)c(C)c1 (centres undefined) ?
middle level

Which class holds `CCCC(CCC)C(=O)O` ?
middle level

Which class holds `CN(C)CCCc1cc(C(=O)Nc2ccc(-c3ccncc3)cc2)ccc1O.Cl.Cl` ?
lower level

Which class holds `CCCn1c(=O)c2[nH]c(C3CCCC3)nc2n(CCC)c1=O` ?
middle level

Which class holds `CSCC[C@H](NC=O)C(=O)N[C@@H](CC(C)C)C(=O)N[C@@H](Cc1ccccc1)C(=O)O` ?
middle level

Which class holds `COc1c(C)cc(NC(=O)c2nn(Cc3ccc(F)cc3)c3c2CN(C(=O)c2ccc[nH]2)C[C@]3(C)C(N)=O)cc1C` ?
upper level

Which class holds `Cc1nc2ccc(Oc3ccc(F)cc3)cc2c(=O)n1C[C@H]1CCCN(C(C)C)C1.Cl` ?
upper level

Which class holds `COc1cc(C(=O)N(CCCc2ccccc2)Cc2ccc(CC(=O)O)cc2)cc(OC)c1C` ?
lower level

Which class holds `CC[C@H]1OC(=O)[C@H](C)[C@@H](O[C@H]2C[C@@](C)(OC)[C@@H](O)[C@H](C)O2)[C@H](C)[C@@H](O[C@@H]2O[C@H](C)C[C@H](N(C)C)[C@H]2O)[C@@]2(C)CC(C)=C(O2)[C@H](C)[C@@H](O)[C@]1(C)O` ?
upper level

Which class holds `Oc1c(CN2CCN(c3ccccn3)CC2)cc(Cl)c2cccnc12` ?
middle level

Which class holds `C[C@@H]1C[C@H]2[C@@H]3CCC4=CC(=O)C=C[C@]4(C)[C@@]3(F)[C@@H](O)C[C@]2(C)[C@@]1(O)C(=O)CO` ?
lower level
